biological target: RSV prefusion F (preF), subtype B (respiratory syncytial virus, subtype B); test: BLI, IgG
Measured attribute: pKd
Please keep in mind that pKd is minus log10 of the molar concentration; only the number is needed.

Check out these entries, answers already filled in.
INSERT INTO results (binder, recorded_value) VALUES
  ('ADI-20964 (antibody, V domains shown) VH: QVQLVQSGAEVKKPGASVKVSCKASGYTFTHYGISWVRQAPGQGLEWMGWISAYNGNTNYAQKLQGRVTMTTDTSTSTAYMEVRSLRYDDTAVYYCARDVPVEAATSPEFWGQGTLVTVSS VL: DIVMTQTPLSLPVTLGQPASISCRSSQSLVYSDGNTYLSWFQQRPGQSPRRLIYKVSNRDSGVPNRFSGSGSGTDFTLKISRVEAEDVGVYYCVQNTHWPAYTFGQGTKVEIK', 8.60),
  ('ADI-20991 (antibody, V domains shown) VH: EVQLVESGGNLVKPGGSLRLSCAASGFTFSGYYMSWIRQAPGKGLEWISDISGGSSYTNYADSVKGRFTISRDNAKNSLYLQMNSLRAEDTAMYYCARVEYDTTGPFHFDYWGQGTLVTVSS VL: QPVLTQPPSVSGAPGQRVTISCTGSSSNIGAGYDVHWYQQLPGTAPKLLIYGNNNRPSGVPDRLSGSKSGTSASLAITGLQAEDEADYYCQSYDSSLSGYVFGTGTKVTVL', 9.59);

Next, consider the following binder.
Please look up its pKd: ADI-14594 (antibody, V domains shown) VH: QVQLVQSGAEVKKPGASVKLSCKASGYTFTTYTINWVRQAPGQGLEWMGWISGYNGNTDYAQKLQGRFTMTTDTSTNTAYMELRSLTSDDTAVYYCAKGGGGSESYFDYWGQGTLVTVSS VL: SYELTQPPSVSVAPGKTARISCGGNNIGSKSVHWYQQKPGQAPVLVIYYDRDRPSGIPERFSGSNSGNTATLTISRVEAGDEADYYCQLWDRSSDHPYVFGTGTKVTVL
7.74
